Data provenance: PubChem BioAssay (NCI)

# System: SF-268 CNS
# Assay remarks: NCI tumour cell line growth inhibition, 48 h; in the data active = GI50 below about 0.43 µM; inactive = the rest
*1 amine or outer side, *2 acyl side, *3 side chain or, on linkers, in order; H or OH if unused. Where a SMILES comes first, the peptide text is derived from it. Bridges are numbered along the chain shown (N, C = ends). Roman numbers before positions name the chains, in order. [ ]: non-standard residue; d: D form. Actinocin(1to9) = Cc1c2oc3c(C)ccc(C(=O)[*:2])c3nc-2c(C(=O)[*:1])c(N)c1=O; NMeV = CN[CH](C(=O)O)C(C)C; Sar = CNCC(=O)O
Labels: active, inactive

- Compound: "CCN(CC)CCOc1ccc(/C(=C(\\C)Cc2ccc(OC)cc2)c2ccc(O)cc2)cc1"
  Experimental system: "SF-268 CNS"
  Answer label: "inactive"
- Compound: "Cc1cc2c(C(C)C)c(O)c(O)c(/C=N/O)c2c(O)c1-c1c(C)cc2c(C(C)C)c(O)c(O)c(/C=N/O)c2c1O"
  Experimental system: "SF-268 CNS"
  Answer label: "inactive"
- Compound: "[pH]1p2[pH]p3p1p3[pH]2.c1cc[c]([Ge]([c]2ccccc2)[c]2ccccc2)cc1.c1cc[c]([Ge]([c]2ccccc2)[c]2ccccc2)cc1.c1cc[c]([Ge]([c]2ccccc2)[c]2ccccc2)cc1"
  Experimental system: "SF-268 CNS"
  Answer label: "inactive"
- Compound: "c1ccc(C2=Nc3ccccc3N3CNN=C23)cc1"
  Experimental system: "SF-268 CNS"
  Answer label: "inactive"
- Compound: "CCCCCCCCCCCCCCCC(=O)OCC1OC(OCCCC)[C@H](O[C@@H]2OC(C)C(OC(=O)CCC)C(O)C2O)C(O)C1O (stereo partly drawn)"
  Experimental system: "SF-268 CNS"
  Answer label: "inactive"
- Compound: "N=C1C(c2nc3ccccc3c(=O)[nH]2)=C(O)CN1c1cccc(Cl)c1"
  Experimental system: "SF-268 CNS"
  Answer label: "inactive"
- Compound: "CCN(CC)CCN1C(=O)c2c(c3c4cccc(Cl)c4n(C4OC(CO)C(OC)C(O)C4O)c3c3[nH]c4c(Cl)cccc4c23)C1=O (stereo not drawn)"
  Experimental system: "SF-268 CNS"
  Answer label: "active"
- Compound: "C/C=C(/C)C(=O)OC1C=C(CO)C(=O)C(OC(=O)C2(C)OC2C)C1C(C)C (stereo not drawn)"
  Experimental system: "SF-268 CNS"
  Answer label: "inactive"
- Compound: "Cc1ccc(/C=C(/C#N)n2nnc3cccc(F)c32)cc1"
  Experimental system: "SF-268 CNS"
  Answer label: "inactive"
- Compound: "COc1ccc(-c2cc(-c3ccc(Cl)cc3)nc(SCCCC(=O)NO)n2)cc1OC"
  Experimental system: "SF-268 CNS"
  Answer label: "inactive"
- Compound: "CCNCCS(=O)(=O)NC[C@@]1(c2ccccc2)SC(NC(=O)C(C)(C)C)=NN1C(=O)C(C)(C)C"
  Experimental system: "SF-268 CNS"
  Answer label: "active"
- Compound: "N#Cc1ncc(-c2ccc(C(F)(F)F)cc2)c(NC2CCCCCC2)n1"
  Experimental system: "SF-268 CNS"
  Answer label: "inactive"
- Compound: "COc1ccc(CC2NC(=O)C(NC(=O)c3c4nc5c(C(=O)NC6C(=O)NC(Cc7ccc(OC)cc7)C(=O)N7CCCC7C(=O)N(C)CC(=O)N(C)C(C(C)C)C(=O)OC6C)ccc(C)c5oc-4c(C)c(=O)c3N)C(C)OC(=O)C(C(C)C)N(C)C(=O)CN(C)C(=O)C3CCCN3C2=O)cc1 (stereo not drawn) (I: TY(Me)P[Sar][NMeV] / II: TY(Me)P[Sar][NMeV]; ester I:1-I:C, II:1-II:C; linker I:N-II:N via Actinocin(1to9); configuration not given here)"
  Experimental system: "SF-268 CNS"
  Answer label: "active"
- Compound: "Cc1c(Br)c(Br)c2c3c1nc(N1CCNCC1)n3CCC2"
  Experimental system: "SF-268 CNS"
  Answer label: "inactive"
- Compound: "CC[C@]1(O)CC2CN(CCc3c([nH]c4ccccc34)C(C(=O)OC)(c3cc4c(cc3OC)N(C=O)[C@H]3[C@@](O)(C(=O)OC)[C@H](OC(C)=O)[C@]5(CC)[C@@H]6C[C@@H]6CN6CC[C@]43[C@@H]65)C2)C1 (stereo partly drawn)"
  Experimental system: "SF-268 CNS"
  Answer label: "active"
- Compound: "N#C/C(=C\\c1ccc(O)c(O)c1)C(=O)NCc1cccc(C(F)(F)F)c1"
  Experimental system: "SF-268 CNS"
  Answer label: "inactive"
- Compound: "CN1CCC(=C(c2ccc(Cl)cc2)c2ccccn2)CC1"
  Experimental system: "SF-268 CNS"
  Answer label: "inactive"
- Compound: "CCOC(=O)C(Cc1ccccc1)n1c(O)c(/C=N/c2ncc(Cc3ccc(Cl)cc3Cl)s2)sc1=S (stereo not drawn)"
  Experimental system: "SF-268 CNS"
  Answer label: "inactive"
